biological target: Chk-1 kinase (Homo sapiens (Human), UniProt O14757); assay: Chk-1 kinase inhibiting activity (33P-ATP filter assay, CHKtide substrate); assay type: biochemical; settings: ranges given; read-out: IC50 values against Chk-1 kinase
Sequence (O14757 whole entry): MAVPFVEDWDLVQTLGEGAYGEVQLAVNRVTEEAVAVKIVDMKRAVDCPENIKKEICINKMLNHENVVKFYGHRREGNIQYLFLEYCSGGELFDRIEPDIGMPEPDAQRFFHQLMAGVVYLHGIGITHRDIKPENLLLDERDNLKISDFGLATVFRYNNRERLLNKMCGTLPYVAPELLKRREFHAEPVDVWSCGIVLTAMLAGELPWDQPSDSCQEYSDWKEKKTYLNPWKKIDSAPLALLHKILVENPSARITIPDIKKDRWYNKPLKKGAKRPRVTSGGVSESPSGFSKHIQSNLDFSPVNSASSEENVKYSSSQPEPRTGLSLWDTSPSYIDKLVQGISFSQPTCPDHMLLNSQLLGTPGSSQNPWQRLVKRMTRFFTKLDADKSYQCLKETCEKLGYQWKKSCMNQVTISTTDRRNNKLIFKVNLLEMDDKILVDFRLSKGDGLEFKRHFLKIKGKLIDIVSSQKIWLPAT
Structures can show the parent of a compound that is named as a salt.
REPORTED ENDPOINT: IC50

1. COc1cc(OCCNCc2ccc(F)cc2)ccc1NC(=O)Nc1cnc(C#N)cn1 [Example 21] : < 10 nM
2. COc1cc(CCN[C@@H](C)c2ccc(N3CCNCC3)cc2)c(Cl)cc1NC(=O)Nc1cnc(C#N)cn1 [Example 52, hydrochloride] : < 10 nM
3. COc1cccc(CNCc2ccc(NC(=O)Nc3cnc(C#N)cn3)c(OC)c2)c1 [Example 61, hydrochloride] : < 10 nM
4. CN1CCN(c2cccc(CNCCc3ccc(NC(=O)Nc4cnc(C#N)cn4)cc3Cl)c2)CC1 [Example 38] : < 10 nM
5. COc1ccc(CNCCc2cc(OC)c(NC(=O)Nc3cnc(C#N)cn3)cc2Cl)cc1 [Example 49, hydrochloride] : < 10 nM
6. COc1cc(CCNCc2ccc(F)cc2)ccc1NC(=O)Nc1cnc(C)cn1 [Example 27, hydrochloride] : 10 to 100 nM
7. N#Cc1cnc(NC(=O)Nc2ccc(CCNCc3ccc(OC(F)(F)F)cc3)c(Cl)c2)cn1 [Example 14] : 10 to 100 nM
8. N#Cc1cnc(NC(=O)Nc2ccc(OCCNCc3ccc(F)cc3)c(Cl)c2)cn1 [Example 26] : 10 to 100 nM
9. COc1cc(OCCNCc2ccc(F)cc2F)ccc1NC(=O)Nc1cnc(C#N)cn1 [Example 33] : < 10 nM
10. N#Cc1cnc(NC(=O)Nc2ccc(CCNCc3ccc(F)cc3F)cc2)cn1 [Example 3] : 100 to 1000 nM
11. COc1cc(CCN[C@@H](C)c2ccc(F)cc2)ccc1NC(=O)Nc1cnc(C#N)cn1 [Example 44] : < 10 nM
12. COc1cc(CCNCc2ccc(N3CCN(C)CC3)cc2)c(Cl)cc1NC(=O)Nc1cnc(C#N)cn1 [Example 50, hydrochloride] : < 10 nM
13. COc1cc(CNCc2ccc(F)cc2)c(Cl)cc1NC(=O)Nc1cnc(C#N)cn1 [Example 63, hydrochloride] : < 10 nM
14. COc1ccc([C@H](C)NCCc2cc(OC)c(NC(=O)Nc3cnc(C#N)cn3)cc2Cl)cc1 [Example 53, hydrochloride] : < 10 nM
15. CN1CCN(c2ccc(CNCCc3ccc(NC(=O)Nc4cnc(C#N)cn4)cc3Cl)cc2)CC1 [Example 35] : < 10 nM
16. COc1cc(CNCc2ccccc2)ccc1NC(=O)Nc1cnc(C#N)cn1 [Example 22] : 10 to 100 nM
17. N#Cc1cnc(NC(=O)Nc2ccc(CCNCc3ccc(F)cc3)c(Cl)c2)cn1 [Example 4] : 10 to 100 nM
18. COc1cccc(CNCCc2ccc(NC(=O)Nc3cnc(C#N)cn3)cc2Cl)c1 [Example 12] : 10 to 100 nM

---

target: Chk-1 kinase (Homo sapiens (Human), UniProt O14757); test: Chk-1 kinase inhibiting activity (33P-ATP filter assay, CHKtide substrate); format: biochemical; conditions: Chk-1 kinase, Table 3; read-out: IC50
Counter-ions that a name gives are not always drawn.
Item-by-item account of IC50
REPORTED ENDPOINT: IC50

1. COc1cccc(CNCc2ccc(NC(=O)Nc3cnc(C#N)cn3)c(OC)c2)c1 [Example 61, hydrochloride] : 7.5 nM
2. COc1cc(CCNCCc2ccc(F)cc2)ccc1NC(=O)Nc1cnc(C#N)cn1 : 2.7 nM
3. C[C@H](NCCc1ccc(NC(=O)Nc2cnc(C#N)cn2)cc1Cl)c1ccc(F)cc1 [Example 18, hydrochloride] : 21 nM

---

target: Chk-1 kinase (Homo sapiens (Human), UniProt O14757); assay: Chk-1 kinase inhibiting activity (33P-ATP filter assay, CHKtide substrate); assay type: biochemical; details: Chk-1 kinase, Table 3; read-out: IC50
pIC50: −log10 of the molar value. Structures can show the parent of a compound that is named as a salt.
REPORTED ENDPOINT: pIC50

1. N#Cc1cnc(NC(=O)Nc2cccc(CCNCc3ccc(F)cc3)c2)cn1 : 7.16
2. COc1ccccc1CNCCc1ccc(NC(=O)Nc2cnc(C#N)cn2)cc1Cl : 7.89
3. CN(CCc1ccc(NC(=O)Nc2cnc(C#N)cn2)cc1Cl)Cc1ccc(F)cc1 : 6.84
4. N#Cc1cnc(NC(=O)Nc2ccc(OCCNCc3ccc(F)cc3F)c(Cl)c2)cn1 : 7.59
5. COc1cc(CCNCc2ccc(N3CCNCC3)cc2)c(Cl)cc1NC(=O)Nc1cnc(C#N)cn1 [Example 64, hydrochloride] : 10.52
6. COc1cc(CNCc2ccccc2F)ccc1NC(=O)Nc1cnc(C#N)cn1 [Example 59, hydrochloride] : 7.89
7. CC(C)Oc1cc(CCNCc2ccc(F)cc2)c(Cl)cc1NC(=O)Nc1cnc(C#N)cn1 [Example 46, hydrochloride] : 9.49
8. COc1cc(OCCNCc2ccc(F)cc2)ccc1NC(=O)Nc1cnc(C#N)cn1 : 8.39

---

target: Chk-1 kinase (Homo sapiens (Human)); assay: Chk-1 kinase inhibiting activity (33P-ATP filter assay, CHKtide substrate); assay type: biochemical; details: Chk-1 kinase, Table 3; read-out: IC50
Where a name gives a salt, the structure may show the parent alone.
REPORTED ENDPOINT: IC50 (nM)

1) N#Cc1cnc(NC(=O)Nc2ccc(CCNCc3ccc(Cl)cc3)c(Cl)c2)cn1 [Example 8] : 11
2) N#Cc1cnc(NC(=O)Nc2ccc(CCNCc3ccc(N4CCOCC4)cc3)c(Cl)c2)cn1 [Example 25] : 18
3) N#Cc1cnc(NC(=O)Nc2ccc(CCNCc3ccc(F)cc3F)c(Cl)c2)cn1 [Example 5] : 38
4) COc1cccc([C@H](C)NCCc2cc(OC)c(NC(=O)Nc3cnc(C#N)cn3)cc2Cl)c1 [Example 65, hydrochloride] : 0.73
5) N#Cc1cnc(NC(=O)Nc2ccc(CCNCc3ccc(F)cc3)c(Cl)c2)cn1 [Example 4] : 15
6) N#Cc1cnc(NC(=O)Nc2ccc(OCCNCc3ccc(F)cc3)c(Cl)c2)cn1 [Example 26] : 21
7) COc1ccccc1CNCc1ccc(NC(=O)Nc2cnc(C#N)cn2)c(OC)c1 [Example 62] : 7.8
8) COc1cc(CCNCc2ccc(F)cc2)c(Br)cc1NC(=O)Nc1cnc(C#N)cn1 [Example 42, hydrochloride] : 0.45
9) N#Cc1cnc(NC(=O)Nc2ccc(CCNCc3ccc(OC(F)(F)F)cc3)c(Cl)c2)cn1 [Example 14] : 68
10) CN1CCN(c2ccc(CNCCc3ccc(NC(=O)Nc4cnc(C#N)cn4)cc3Cl)cc2)CC1 [Example 35] : 1.4
11) COc1ccccc1CNCCc1cc(OC)c(NC(=O)Nc2cnc(C#N)cn2)cc1Cl [Example 55, hydrochloride] : 0.48
12) COc1ccc([C@H](C)NCCc2cc(OC)c(NC(=O)Nc3cnc(C#N)cn3)cc2Cl)cc1 [Example 53, hydrochloride] : 0.56
13) N#Cc1cnc(NC(=O)Nc2ccc(CCNCc3cccc(N4CCOCC4)c3)c(Cl)c2)cn1 [Example 39] : 12
14) C[C@@H](NCCc1ccc(NC(=O)Nc2cnc(C#N)cn2)cc1Cl)c1ccc(F)cc1 [Example 24, hydrochloride] : 13
15) COc1ccc(CNCCc2cc(OC)c(NC(=O)Nc3cnc(C#N)cn3)cc2Cl)cc1 [Example 49, hydrochloride] : 0.28
16) COc1cc(OCCNCc2ccc(F)cc2F)ccc1NC(=O)Nc1cnc(C#N)cn1 [Example 33] : 3

---

system: HT29 cells; assay: Sensitisation of HT29 cells to SN38 (Alamar blue cell growth); format: cell-based, human; details: HT29 cells; test compound at 3 μM
Structures can show the parent of a compound that is named as a salt.
REPORTED ENDPOINT: fold shift in the IC50 value of SN38

1. COc1cc(CCNCc2ccc(F)cc2)ccc1NC(=O)Nc1cnc(C)cn1 [Example 27, hydrochloride] : three
2. N#Cc1cnc(NC(=O)Nc2ccc(CCNCc3ccc(OC(F)(F)F)cc3)c(Cl)c2)cn1 [Example 14] : three
3. N#Cc1cnc(NC(=O)Nc2cccc(CCNCc3ccc(F)cc3)c2)cn1 [Example 34] : three
4. N#Cc1cnc(NC(=O)Nc2ccc(CCNCc3ccc(F)cc3)cc2)cn1 [Example 2] : three
5. COc1cc(CCNCCc2ccc(F)cc2)ccc1NC(=O)Nc1cnc(C#N)cn1 [Example 31] : three
6. N#Cc1cnc(NC(=O)Nc2ccc(CCNCc3cccc(N4CCOCC4)c3)c(Cl)c2)cn1 [Example 39] : three
7. COc1cc(OCCNCc2ccc(F)cc2F)ccc1NC(=O)Nc1cnc(C#N)cn1 [Example 33] : three

---

target: Chk-1 kinase (Homo sapiens (Human), UniProt O14757); assay: Chk-1 kinase inhibiting activity (33P-ATP filter assay, CHKtide substrate); assay type: biochemical; conditions: ranges given; read-out: IC50 values against Chk-1 kinase
Counter-ions that a name gives are not always drawn.
REPORTED ENDPOINT: IC50

1. COc1cc(OCCNCc2ccc(F)cc2)c(Cl)cc1NC(=O)Nc1cnc(C#N)cn1 [Example 47, hydrochloride] : < 10 nM
2. COc1cccc([C@H](C)NCCc2cc(OC)c(NC(=O)Nc3cnc(C#N)cn3)cc2Cl)c1 [Example 65, hydrochloride] : < 10 nM
3. N#Cc1cnc(NC(=O)Nc2ccc(CCNCc3ccc(F)cc3F)c(Cl)c2)cn1 [Example 5] : 10 to 100 nM
4. N#Cc1cnc(NC(=O)Nc2ccc(CCNCCc3ccc(F)cc3F)c(Cl)c2)cn1 [Example 28] : 10 to 100 nM
5. N#Cc1cnc(NC(=O)Nc2ccc(CCNCc3ccc(Cl)cc3)c(Cl)c2)cn1 [Example 8] : 10 to 100 nM
6. COc1cc(CCNCc2ccc(F)cc2)c(Cl)cc1NC(=O)Nc1cnc(C#N)cn1 [Example 37, hydrochloride] : < 10 nM
7. N#Cc1cnc(NC(=O)Nc2ccc(CCNCc3ccc(C(F)(F)F)cc3)c(Cl)c2)cn1 [Example 17, hydrochloride] : 10 to 100 nM
8. COc1cc(CCNCc2ccc(F)cc2F)ccc1NC(=O)Nc1cnc(C#N)cn1 [Example 30] : < 10 nM
